Tested on: Staphylococcus aureus
Test: Antibacterial activity against methicillin-resistant Staphylococcus aureus measured after 24 hrs by CLSI based broth microdilution method
Format: functional
Field: MIC. Provide a value for each of the molecules that follow.

Answered cases to consult:
SMILES ENTRY	MIC
C=CCCCCCCCCCCCc1cc(O)cc(O)c1C(=O)O	4 µg/mL
COc1cccc(OC)c1C(=O)N[C@@H]1C(=O)N2[C@@H]1SC(C)(C)[C@@H]2C(=O)O	> 128 µg/mL
CCCCCCCCCCCc1cc(O)cc(O)c1C(=O)O	8 µg/mL
CCCCCCCCCCCCc1cc(O)cc(O)c1	8 µg/mL
CCCCCCCCCCCCCc1cc(O)cc(O)c1C(=O)O	4 µg/mL

Give one value of MIC per listed molecule.
1. CCCCCCCCCCCCc1cc(O)cc(O)c1C(=O)O
2. CCCCCCCCCCCCCCc1cc(O)cc(O)c1C(=O)O
3. CCCCCCCCCCCCCc1cc(O)cc(O)c1

Result block:
1. 8 µg/mL
2. 4 µg/mL
3. 4 µg/mL

Query block: Given the entry C=CCCCCCCCCCCCc1cc(O)cc(O)c1 , report its measured MIC.
Result block: 4 µg/mL
